- study_system: T1, PARD3B_1, Q8TEW8
- T1 sequence (Q8TEW8 196-299, limits assumed, looked up): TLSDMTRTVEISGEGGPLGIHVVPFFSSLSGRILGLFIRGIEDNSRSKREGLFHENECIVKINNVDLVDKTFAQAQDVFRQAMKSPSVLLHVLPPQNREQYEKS
- test: holdup assay
- Parameters: key: below the threshold = too weak to quantify, mostly under pKd 3.1 to 4
- experimental_conditions: plain residues with an end cap or a label only (N-terminal biotin on a linker: ado-ado)
measured_attribute: pKd

> print(dat)
                         binder  endpoint.value
1    MHIQEKGFHV [EPHA6, Q9UF33]            4.89
2     QSGLYESEEL [MYOT, Q9UBF9]            3.86
3   SLNANEVEWF [RNF130, Q86XS8]            4.35
4  PYSESDDDWC [CACNA1A, O00555]            3.61
5    ARSAAASNYV [CLDN4, O14493]            3.65
6    RSSGGDDFWF [KCNV1, Q6PIU1]            4.48
7  GIKKITSTAL [RPS6KA3, P51812]            4.05
